Recorded measurements of IC50, one per entry
biological target: NMDA NR1 + NR2B (Homo sapiens, UniProt Q05586+Q13224); experiment: Block of recombinant NMDA receptor subtype NR1 + NR2B expressed in Xenopus oocytes
Sequence (Q13224 27-1484, other chains not shown): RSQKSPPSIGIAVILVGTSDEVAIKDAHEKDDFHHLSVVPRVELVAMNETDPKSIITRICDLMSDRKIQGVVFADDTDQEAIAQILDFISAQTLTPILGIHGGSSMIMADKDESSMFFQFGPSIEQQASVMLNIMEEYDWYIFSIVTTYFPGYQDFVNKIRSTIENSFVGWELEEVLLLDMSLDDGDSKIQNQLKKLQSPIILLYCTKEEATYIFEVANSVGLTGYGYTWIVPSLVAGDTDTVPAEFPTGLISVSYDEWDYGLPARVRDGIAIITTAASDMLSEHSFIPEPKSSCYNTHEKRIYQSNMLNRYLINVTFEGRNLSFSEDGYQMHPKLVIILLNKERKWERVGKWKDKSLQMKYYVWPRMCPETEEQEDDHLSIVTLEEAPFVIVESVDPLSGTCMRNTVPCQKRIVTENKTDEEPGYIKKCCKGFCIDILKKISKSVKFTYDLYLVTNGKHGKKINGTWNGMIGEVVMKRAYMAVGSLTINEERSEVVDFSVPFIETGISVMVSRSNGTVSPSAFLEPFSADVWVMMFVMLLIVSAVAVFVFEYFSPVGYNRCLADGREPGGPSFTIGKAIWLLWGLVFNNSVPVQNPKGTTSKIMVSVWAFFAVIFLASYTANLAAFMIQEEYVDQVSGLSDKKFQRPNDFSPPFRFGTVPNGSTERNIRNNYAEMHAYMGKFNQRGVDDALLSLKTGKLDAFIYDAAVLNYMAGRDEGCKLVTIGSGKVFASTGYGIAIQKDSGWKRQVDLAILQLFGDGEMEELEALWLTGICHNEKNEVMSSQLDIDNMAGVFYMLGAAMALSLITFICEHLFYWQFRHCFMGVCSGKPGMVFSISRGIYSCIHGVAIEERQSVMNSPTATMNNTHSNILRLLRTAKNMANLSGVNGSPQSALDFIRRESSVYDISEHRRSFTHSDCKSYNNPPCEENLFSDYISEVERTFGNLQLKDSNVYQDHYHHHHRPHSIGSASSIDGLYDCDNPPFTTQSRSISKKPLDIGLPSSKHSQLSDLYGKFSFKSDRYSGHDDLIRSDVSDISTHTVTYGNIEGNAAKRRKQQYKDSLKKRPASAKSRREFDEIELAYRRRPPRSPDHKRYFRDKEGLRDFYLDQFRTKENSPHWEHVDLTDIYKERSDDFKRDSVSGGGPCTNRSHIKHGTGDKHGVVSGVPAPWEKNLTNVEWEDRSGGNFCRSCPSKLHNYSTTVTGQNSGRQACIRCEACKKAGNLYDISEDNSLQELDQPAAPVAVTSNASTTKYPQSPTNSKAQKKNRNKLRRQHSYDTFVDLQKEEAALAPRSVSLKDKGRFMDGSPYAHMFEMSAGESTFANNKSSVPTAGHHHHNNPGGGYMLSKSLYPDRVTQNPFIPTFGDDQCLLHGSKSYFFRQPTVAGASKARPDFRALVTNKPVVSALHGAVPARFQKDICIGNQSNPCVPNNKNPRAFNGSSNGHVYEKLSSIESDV
Reply with just the number (in nM).

# example entries with known answers
{"MOLECULE": "Cc1ccc(CC2(O)CCN(CCOc3ccc(O)cc3)CC2)cc1 [Compound 9, reference compound]", "ASSAYED_TARGET": "NMDA NR1 + NR2B (Homo sapiens, UniProt Q05586+Q13224)", "RESULT_UNITS": "nM", "REPORTED_VALUE": 3}
{"MOLECULE": "Cc1ccc(C[C@H]2CCN(CCS(=O)(=O)c3ccc(O)cc3)C[C@H]2O)cc1 (single isomer, unassigned)", "ASSAYED_TARGET": "NMDA NR1 + NR2B (Homo sapiens, UniProt Q05586+Q13224)", "RESULT_UNITS": "nM", "REPORTED_VALUE": 8}

IC50 measured on O=S(=O)(CCN1CC[C@H](Cc2ccccc2)[C@H](O)C1)c1ccc(O)cc1 = 38

Just for reference, patent US6310213A is where these values come from.
